Listing of recorded Fold change to WT CD80 by entry.
# target_under_test: T1, human PD-L1 (human, UniProt Q9NZQ7 19-290)
# T1 construct: also called huPD-L1; CD274
# protocol_notes: flow cytometry on CHO cells stably expressing PD-L1; vs CD80 WT IgV-Fc
Give your result as the value with the unit written after it.

CD80 E35D/D46V/M47L/V68M/L85Q/E88D IgV-Fc, GS(G4S)5 linker (Fc fusion, not shown: a dimerising Fc or GST) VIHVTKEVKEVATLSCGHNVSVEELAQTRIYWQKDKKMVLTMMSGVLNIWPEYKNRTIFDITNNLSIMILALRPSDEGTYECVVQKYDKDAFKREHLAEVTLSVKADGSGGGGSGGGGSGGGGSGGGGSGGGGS	481 fold
wild-type CD80 IgV-Fc (inert) with GSG4S linker, Example 16 (Fc fusion, also called CD80 WT IgV-Fc) VIHVTKEVKEVATLSCGHNVSVEELAQTRIYWQKEKKMVLTMMSGDMNIWPEYKNRTIFDITNNLSIVILALRPSDEGTYECVVLKYEKDAFKREHLAEVTLSVKADGSGGGGSEPKSSDKTHTCPPCPAPEAEGAPSVFLFPPKPKDTLMISRTPEVTCVVVDVSHEDPEVKFNWYVDGVEVHNAKTKPREEQYNSTYRVVSVLTVLHQDWLNGKEYKCKVSNKALPAPIEKTISKAKGQPREPQVYTLPPSREEMTKNQVSLTCLVKGFYPSDIAVEWESNGQPENNYKTTPPVLDSDGSFFLYSKLTVDKSRWQQGNVFSCSVMHEALHNHYTQKSLSLSPG	1 fold
CD80 E35D/D46V/M47L/V68M/L85Q/E88D IgV-Fc, EAAAK linker (Fc fusion, not shown: a dimerising Fc or GST) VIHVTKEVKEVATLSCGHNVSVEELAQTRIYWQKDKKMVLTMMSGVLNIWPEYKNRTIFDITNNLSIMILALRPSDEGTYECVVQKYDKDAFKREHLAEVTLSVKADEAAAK	533 fold

Now take the following binder into account.
input: Looking for the measured Fold change to WT CD80 of CD80 E35D/D46V/M47L/V68M/L85Q/E88D IgV-Fc, (EAAAK)3 linker (Fc fusion, not shown: a dimerising Fc or GST) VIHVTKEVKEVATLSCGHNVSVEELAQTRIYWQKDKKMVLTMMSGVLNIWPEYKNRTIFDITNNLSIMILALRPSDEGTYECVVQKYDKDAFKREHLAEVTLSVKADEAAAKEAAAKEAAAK , can you help?
output: 546 fold

Data origin, for the record: patent US20210130436A1
